Origin of values: patent US10040791B2

tested on: HT-1080 cells expressing IDH1R132C; test: 2-HG production inhibitory activity using HT1080 cell; assay type: cell-based, human; settings: Homo sapiens, HT-1080; 2-HG production, HT1080 cells; read-out: Test Example 3 IC50
assay.readout: IC50

Examples with answers:
molecule: CC1(c2onc(-c3c(Cl)cccc3Cl)c2C(=O)n2ccc3c(/C=C/C(=O)O)cccc32)CCO1 (stereo not shown)
target.system: HT-1080 cells expressing IDH1R132C
reported.value: 428 nM
//
molecule: C=CC(=O)N1CCCC(c2onc(-c3c(Cl)cc(Cl)cc3Cl)c2C(=O)n2ccc3c(/C=C/C(=O)O)cccc32)C1 (stereo not shown)
target.system: HT-1080 cells expressing IDH1R132C
reported.value: 290 nM
//
molecule: C=CC(=O)N1CCC(c2onc(-c3ccc(Cl)c(F)c3Cl)c2C(=O)n2cc(C)c3c(/C=C/C(=O)O)cccc32)CC1
target.system: HT-1080 cells expressing IDH1R132C
reported.value: 10 nM
//
molecule: C=CC(=O)N1CC2(CC2)N(c2onc(-c3c(F)cccc3Cl)c2C(=O)n2ccc3c(/C=C/C(=O)O)cccc32)C[C@H]1CC
target.system: HT-1080 cells expressing IDH1R132C
reported.value: 106 nM

So what's the measured IC50 for this one? C=CS(=O)(=O)N1CCC(c2onc(-c3c(Cl)cc(Cl)cc3Cl)c2C(=O)n2ccc3c(/C=C/C(=O)O)cccc32)CC1
506 nM

What value of IC50 has been reported for the following molecule? Cc1cn(C(=O)c2c(-c3c(Cl)cc(Cl)cc3Cl)noc2C2(C(=O)N(C)C)CCC2)c2cccc(/C=C/C(=O)O)c12
37 nM

# input molecule: CC(C)(C)c1onc(-c2c(Cl)cc(Cl)cc2Cl)c1C(=O)N1CCc2c(/C=C/C(=O)O)cccc21 ; wanted: its IC50
413 nM

Dear colleague, I am looking for the recorded IC50 of the following molecule: Cc1cn(C(=O)c2c(-c3c(Cl)cc(Cl)cc3Cl)noc2C2(C)CC2)c2cccc(/C=C/C(=O)O)c12
63 nM

Sample CC(=O)c1cn(C(=O)c2c(-c3c(Cl)cc(Cl)cc3Cl)noc2C(C)(C)F)c2cccc(/C=C/C(=O)O)c12 — what was its IC50?
> 2000 nM

Name the reported IC50 value associated with the molecule COC1(c2onc(-c3c(F)cc(Cl)cc3Cl)c2C(=O)n2cc3c4c(cccc42)/C(=C/C(=O)O)CC3)CCC1
37 nM
